# procedureDetails: Partition coefficient (logP)
# Type: physicochemical
# experimentalSetup: octanol/water
measurementType: logP

# example entries with known answers
smilesRepr | logP
Oc1ccc2c(c1CNc1ccc(F)cc1F)CCCO2 | 4.2
Oc1cc2ccoc2cc1CNc1ccccc1 | 3.3
COc1ccc(O)c(CSc2ccccc2)c1 | 3.9

1 = O=Cc1ccccc1/C=C/Cc1cc2c(cc1O)CCO2
2 = OCc1ccccc1NCc1cc2occc2cc1O
Challenge: Could you point out whether the larger logP belongs to 1 or to 2 ? Kindly state the label of the option you pick.
Response given: 1
(1: 3.9, 2: 2.2)

a = N#Cc1ccc(NCc2cc3c(cc2O)CCO3)s1
b = OCc1ccccc1CCCc1cc2c(cc1O)CCO2
c = OCc1ccccc1NCc1cc2c(cc1O)CCO2
Challenge: List by increasing logP. # format: label list in the order the request specifies
Response given: c, a, b
(c: 1.9, a: 2.8, b: 4)
